B1: WEE1 (parent)
chain: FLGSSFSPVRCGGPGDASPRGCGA

# Variants of: B1
# assay notes: protein stability index of a GFP-peptide fusion (GPS, HEK-293T) (PSI 1-6); higher = more stable;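 note: lentivirally expressed fusions sorted by FACS into six bins by GFP to DsRed ratio, PSI derived from sequencing read proportions per bin multiplied by bin number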
# test parameters: c terminus: a fixed tail appended
For each of the variants below, state its protein stability index.
Simply state the number, no unit and no words.

Looking for the measured protein stability index of "V9Y" , can you help?
1.25

Try "V9I" next.
1.8

Try "P8T" next.
1.43

Try "R20T" next.
1.8

Try "P19E" next.
2.14

Try "A24F" next.
2.42

Try "D16G" next.
1.99

Try "P8N" next.
2.05

Try "G21W" next.
1.38

Try "V9T" next.
1.88

Try "D16P" next.
1.73
